Where do the numbers come from? From patent US8188059B2.

test system: SGLT2 mRNA; assay: SGLT2 mRNA levels in kidney of Balb/c mice, twenty 1-10-1 MOE gapmers at 350 nmol/kg, PPS 534 and PPS 553 (Example 18, Table 74); type: in vivo, mouse; details: 350 nmol/kg i.p. twice per week for two weeks, primer probe set 534
Strand notation (5' to 3'): a small letter for the sugar, then the base; units joined by * are phosphorothioate-linked, units joined directly phosphodiester-linked; [ ] holds rarer units or linkages, { } end groups; capitals alone tell only the bases. e = 2'-O-(2-methoxyethyl) (MOE); [5mC] = 5-methylcytosine; d = 2'-deoxy (DNA)
Class field: derived from SGLT2 mRNA in kidney, % change relative to saline; ranges L: < -60%; M: ≥ -60% and < -20%; H: ≥ -20%

Use these answered entries as a reference point.
substance | labelClass
379688 (antisense e[5mC]*d[5mC]*dA*dA*dG*d[5mC]*d[5mC]*dA*d[5mC]*dT*dT*eG) [compound 379688] | L
379691 (antisense eA*dG*dA*dT*d[5mC]*dT*dT*dG*dG*dT*dG*eA) [compound 379691] | M
379693 (antisense e[5mC]*dA*dT*dG*dG*dT*dG*dA*dT*dG*d[5mC]*e[5mC]) [compound 379693] | M

Q) Hello team, could you let me know which band the following substance falls into: 379692 (antisense eT*dG*dT*dT*d[5mC]*d[5mC]*dA*dG*d[5mC]*d[5mC]*d[5mC]*eA) [compound 379692]
A) L

Q) Now consider 379690 (antisense eA*d[5mC]*dA*dG*dG*dT*dA*dG*dA*dG*dG*e[5mC]) [compound 379690] and answer again.
A) H

Q) Here is the next substance: 379699 (antisense eG*dG*d[5mC]*dA*dT*dG*dA*dG*d[5mC]*dT*dT*e[5mC]) [compound 379699]
A) L

Q) Same lookup for 379697 (antisense e[5mC]*dT*dG*dG*d[5mC]*dA*dT*dG*dA*d[5mC]*d[5mC]*eA) [compound 379697] , please.
A) M

Q) // same read-out, input: 379701 (antisense e[5mC]*d[5mC]*dA*dT*dG*dG*dT*dG*dA*dA*dG*eA) [compound 379701]
A) H

Q) # repeat for 370717 (antisense eT*dA*dG*d[5mC]*d[5mC]*dA*d[5mC]*d[5mC]*dA*dA*d[5mC]*eT) [compound 370717]
A) L

Q) Try 379689 (antisense eA*dG*dA*dG*d[5mC]*dG*d[5mC]*dA*dT*dT*d[5mC]*e[5mC]) [compound 379689] next.
A) H

Q) What about this substance? 379685 (antisense eT*dG*dA*d[5mC]*d[5mC]*dA*dG*d[5mC]*dA*dG*dG*eA) [compound 379685]
A) H

Q) Now the substance 379694 (antisense eG*dA*d[5mC]*dG*dA*dA*dG*dG*dT*d[5mC]*dT*eG) [compound 379694]
A) M

Q) Would you kindly repeat that for 379702 (antisense eG*d[5mC]*dA*d[5mC]*dA*d[5mC]*dA*dG*d[5mC]*dT*dG*e[5mC]) [compound 379702] ?
A) L

Q) Repeat for the following substance: 379700 (antisense e[5mC]*d[5mC]*dA*dG*d[5mC]*dA*dT*dG*dA*dG*dT*e[5mC]) [compound 379700]
A) H
